Catalogue of interaction score values
- target: T1, 4H3843-bA
- T1 chain: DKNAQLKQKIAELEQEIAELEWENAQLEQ
- assay-protocol: two-hybrid library CCNG1;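 note: natural log of median RNA to DNA barcode read ratio; higher means stronger binding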
Just the number, please, no unit attached.

> print(dat)
                                     binder  numeric.result
1  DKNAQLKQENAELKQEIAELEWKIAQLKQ [4H3782-bA]            1.18
2  DEIAQLEQKIAELKQKNAELEWEIAQLKQ [4H370-bA]          -0.261
3  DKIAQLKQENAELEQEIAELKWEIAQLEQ [4H2697-bA]          -0.367
4  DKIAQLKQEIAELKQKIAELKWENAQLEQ [4H2667-bA]            1.49
5  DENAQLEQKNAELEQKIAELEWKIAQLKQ [4H1446-bA]            2.01

-- ask Data request, read-out interaction score, for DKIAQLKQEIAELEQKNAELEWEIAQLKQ [4H2610-bA]
-- reply 0.444

-- ask What value of interaction score has been recorded for this entry: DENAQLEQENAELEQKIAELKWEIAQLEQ [4H1193-bA]
-- reply 0.453

-- ask // lookup interaction score for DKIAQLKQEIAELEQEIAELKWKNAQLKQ [4H2576-bA]
-- reply 2.1
